test system: corn; test: Drought resistance in seed-coated corn; assay type: in vivo; conditions: corn seed treatment 0.12 μg/seed, vs mock
Marks after values point to notes of the source that are not given here.
Measured Parameter: % Change Fresh Weight

Please review the following examples before continuing.
Item: AGQTSGMSPMEELMKIFADITQSLFGDQDG (P13-45 peptide) [Peptide P13-45] | System: corn | % Change Fresh Weight: 8.54** %

Item: AGQTSGMSPMEQLMKIFADITESLFGDQDG (P13-43 peptide) [Peptide P13-43] | System: corn | % Change Fresh Weight: 6.2* %

// moving on: another record for % Change Fresh Weight
Item: SQEEEMEPMEQLMEIFEEIEQELFG (P13-26 peptide) [Peptide P13-26] | System: corn | % Change Fresh Weight: 3.77* %
